For each record, write down the corresponding GI50.
- System: SF-539
- assay_remarks: Cytotoxicity against Homo sapiens (human) SF539 cells after 48 hr by SRB assay
- Format: functional
- applied_conditions: SF-539, 48 h
One number for each entry, in µM.

{"sample_smiles": "COc1ccc(-c2cc(-c3cccn3C)c(C#N)c(=O)[nH]2)cc1OC", "units_label": "µM", "recorded_measurement": 67.6}

API: the following record is the query input.
Q: I have this compound here, "Cn1cccc1-c1cc(-c2ccc(Br)cc2)[nH]c(=O)c1C#N" , and I need its recorded GI50.
A: 89.1

----------
- Tested on: T47D
- assay_remarks: Cytotoxicity against Homo sapiens (human) T47D cells after 48 hr by SRB assay
- Format: functional
readout_label: GI50

In the examples that follow, each entry is paired with its recorded GI50.
{"sample_smiles": "COc1ccc(-c2cc(-c3cccn3C)c(C#N)c(=O)[nH]2)cc1OC", "subject_of_test": "T47D", "recorded_measurement": "34.7 µM"}
{"sample_smiles": "Cn1cccc1-c1cc(-c2ccc(Br)cc2)n(C(=S)Nc2ccc(F)cc2)c(=O)c1C#N", "subject_of_test": "T47D", "recorded_measurement": "> 100 µM"}
{"sample_smiles": "Cn1cccc1-c1cc(-c2ccc(Br)cc2)[nH]c(=O)c1C#N", "subject_of_test": "T47D", "recorded_measurement": "> 100 µM"}
{"sample_smiles": "COc1ccc(-c2cc(-c3cccs3)[nH]c(=O)c2C#N)cc1", "subject_of_test": "T47D", "recorded_measurement": "> 100 µM"}

API: the following record is the query input.
Q: Query the reported GI50 for T47D; item: "COc1ccc(-c2cc(-c3cccn3C)c(C#N)c3nnc(C)n23)cc1OC"
A: > 100 µM

----------
- Test system: SF-268
- assay_remarks: Cytotoxicity against Homo sapiens (human) SF268 cells after 48 hr by SRB assay
- Type: functional
- applied_conditions: SF-268, 48 h
For each record, write down the corresponding GI50.

In the examples that follow, each entry is paired with its recorded GI50.
{"sample_smiles": "COc1ccc(-c2cc(-c3cccs3)[nH]c(=O)c2C#N)cc1", "GI50": "> 100 µM"}
{"sample_smiles": "COc1ccc(-c2cc(-c3cccn3C)c(C#N)c(=O)[nH]2)cc1OC", "GI50": "> 100 µM"}
{"sample_smiles": "COc1ccc(-c2cc(-c3cccn3C)c(C#N)c3nnc(C)n23)cc1OC", "GI50": "> 100 µM"}

Go through the items and report each one's GI50.
1. Cn1cccc1-c1cc(-c2ccc(Br)cc2)[nH]c(=O)c1C#N
2. Cn1cccc1-c1cc(-c2ccc(Br)cc2)n(C(=S)Nc2ccc(F)cc2)c(=O)c1C#N

A:
> 100 µM
20.4 µM

----------
- Test system: EKVX
- assay_remarks: Cytotoxicity against Homo sapiens (human) EKVX cells after 48 hr by SRB assay
- Type: functional
readout_label: GI50 (nM)
Answers are plain numbers, in nM.

In the examples that follow, each entry is paired with its recorded GI50.
{"sample_smiles": "COc1ccc(-c2cc(-c3cccn3C)c(C#N)c(=O)[nH]2)cc1OC", "GI50 [nM]": 50}
{"sample_smiles": "Cn1cccc1-c1cc(-c2ccc(Br)cc2)[nH]c(=O)c1C#N", "GI50 [nM]": 27500}
{"sample_smiles": "Cn1cccc1-c1cc(-c2ccc(Br)cc2)n(C(=S)Nc2ccc(F)cc2)c(=O)c1C#N", "GI50 [nM]": 10}

API: the following record is the query input.
Q: I have this molecule here, "COc1ccc(-c2cc(-c3cccn3C)c(C#N)c3nnc(C)n23)cc1OC" , and I need its recorded GI50.
A: 10

----------
For each record, write down the corresponding GI50.
- Tested on: UO-31
- assay_remarks: Cytotoxicity against Homo sapiens (human) UO31 cells after 48 hr by SRB assay
- Type: functional
- applied_conditions: UO-31, 48 h

{"sample_smiles": "COc1ccc(-c2cc(-c3cccs3)[nH]c(=O)c2C#N)cc1", "GI50": "> 100 µM"}
{"sample_smiles": "Cn1cccc1-c1cc(-c2ccc(Br)cc2)n(C(=S)Nc2ccc(F)cc2)c(=O)c1C#N", "GI50": "13.8 µM"}
{"sample_smiles": "COc1ccc(-c2cc(-c3cccn3C)c(C#N)c(=O)[nH]2)cc1OC", "GI50": "85.1 µM"}
{"sample_smiles": "COc1ccc(-c2cc(-c3cccn3C)c(C#N)c3nnc(C)n23)cc1OC", "GI50": "> 100 µM"}

API: the following record is the query input.
Q: Query the reported GI50 for UO-31; item: "Cn1cccc1-c1cc(-c2ccc(Br)cc2)[nH]c(=O)c1C#N"
A: 69.2 µM

----------
For each record, write down the corresponding inhibition of growth at 10 µM.
- Test system: HL-60(TB)
- assay_remarks: Growth inhibition of Homo sapiens (human) HL-60(TB) cells at 10 uM after 48 hr by SRB assay
- Assay type: functional
- applied_conditions: HL-60, 48 h, read-out: GI
Numbers only, in %.

{"sample_smiles": "COc1ccc(-c2cc(-c3cccn3C)c(C#N)c(=O)n2C=O)cc1OC", "subject_of_test": "HL-60(TB)", "inhibition of growth at 10 µM [%]": 57.1}
{"sample_smiles": "COc1ccc(-c2cc(-c3cccs3)n(S(=O)(=O)c3ccccc3)c(=O)c2C#N)cc1", "subject_of_test": "HL-60(TB)", "inhibition of growth at 10 µM [%]": 55}
{"sample_smiles": "Cn1cccc1-c1cc(-c2ccc(Br)cc2)n(C(=S)Nc2ccc(F)cc2)c(=O)c1C#N", "subject_of_test": "HL-60(TB)", "inhibition of growth at 10 µM [%]": 82.3}

API: the following record is the query input.
Q: Query the reported inhibition of growth at 10 µM for HL-60(TB); item: "Cn1cccc1-c1cc(-c2ccc(Br)cc2)n(S(=O)(=O)c2ccccc2)c(=O)c1C#N"
A: 59.7

----------
- System: HL-60(TB)
- assay_remarks: Cytotoxicity against Homo sapiens (human) HL-60(TB) cells after 48 hr by SRB assay
- Format: functional
- applied_conditions: HL-60, 48 h
readout_label: GI50 (µM)
One number for each entry, in µM.

{"sample_smiles": "Cn1cccc1-c1cc(-c2ccc(Br)cc2)n(C(=S)Nc2ccc(F)cc2)c(=O)c1C#N", "GI50 (µM)": 14.5}

API: the following record is the query input.
Q: I have this compound here, "COc1ccc(-c2cc(-c3cccs3)[nH]c(=O)c2C#N)cc1" , and I need its recorded GI50.
A: 45.7

----------
- Test system: SF-539
- assay_remarks: Cytotoxicity against Homo sapiens (human) SF539 cells after 48 hr by SRB assay
- Format: functional
- applied_conditions: SF-539, 48 h
readout_label: GI50

In the examples that follow, each entry is paired with its recorded GI50.
{"sample_smiles": "Cn1cccc1-c1cc(-c2ccc(Br)cc2)n(C(=S)Nc2ccc(F)cc2)c(=O)c1C#N", "GI50": "> 100 µM"}
{"sample_smiles": "COc1ccc(-c2cc(-c3cccs3)[nH]c(=O)c2C#N)cc1", "GI50": "> 100 µM"}

API: the following record is the query input.
Q: I have this compound here, "COc1ccc(-c2cc(-c3cccn3C)c(C#N)c3nnc(C)n23)cc1OC" , and I need its recorded GI50.
A: > 100 µM

----------
- Tested on: HL-60(TB)
- assay_remarks: Cytotoxicity against Homo sapiens (human) HL-60(TB) cells after 48 hr by SRB assay
- Format: functional
- applied_conditions: HL-60, 48 h
For each record, write down the corresponding GI50.

In the examples that follow, each entry is paired with its recorded GI50.
{"sample_smiles": "COc1ccc(-c2cc(-c3cccn3C)c(C#N)c3nnc(C)n23)cc1OC", "recorded_measurement": "> 100 µM"}
{"sample_smiles": "Cn1cccc1-c1cc(-c2ccc(Br)cc2)[nH]c(=O)c1C#N", "recorded_measurement": "> 100 µM"}

API: the following record is the query input.
Q: I have this molecule here, "COc1ccc(-c2cc(-c3cccn3C)c(C#N)c(=O)[nH]2)cc1OC" , and I need its recorded GI50.
A: > 100 µM
